- EXPERIMENT DESCRIPTION: Lipophilicity, log D of the compound by HPLC chromatographic method
- Type: physicochemical
PROPERTY LABEL: chromatographic logD

>>> print(df.to_string())
                                    compound  quantitative_result
 0  N#Cc1ccc(C(CC(=O)O)NC(=O)CCCCc2ccc3c(n2)NCCC3)cc1 (racemic)                 1.47
 1  Cc1cc(C)cc(C(CC(=O)O)NC(=O)CCCCc2ccc3c(n2)NCCC3)c1 (racemic)                 2.43
 2  O=C(O)CC(NC(=O)CCCCc1ccc2c(n1)NCCC2)c1ccc2c(c1)CCC2 (racemic)                 2.52
 3  COc1ccc(C(CC(=O)O)NC(=O)CCCCc2ccc3c(n2)NCCC3)cc1 (racemic)                 1.64
 4  O=C(O)C[C@H](NC(=O)CCCCc1ccc2c(n1)NCCC2)c1cccc(C(F)(F)F)c1                 2.72
 5  O=C(O)CC(NC(=O)CCCCc1ccc2c(n1)NCCC2)c1ccc(-c2ccccc2)cc1 (racemic)                  3.1
 6  O=C(O)CC(NC(=O)CCCCc1ccc2c(n1)NCCC2)c1cccc(Cl)c1 (racemic)                  2.3
 7  COc1ccccc1C(CC(=O)O)NC(=O)CCCCc1ccc2c(n1)NCCC2 (racemic)                 1.83
 8  O=C(O)CC(NC(=O)CCCCc1ccc2c(n1)NCCC2)c1ccc(Cl)c(Cl)c1 (racemic)                 2.62
 9  N#Cc1cccc(C(CC(=O)O)NC(=O)CCCCc2ccc3c(n2)NCCC3)c1 (racemic)                 1.67
10  Cc1ccc(C(CC(=O)O)NC(=O)CCCCc2ccc3c(n2)NCCC3)cc1C (racemic)                 2.29
11  O=C(O)CC(NC(=O)CCCCc1ccc2c(n1)NCCC2)c1cc(Cl)cc(Cl)c1 (racemic)                 2.93
12  O=C(O)CC(NC(=O)CCCCc1ccc2c(n1)NCCC2)c1ccc(Cl)c(C(F)(F)F)c1 (racemic)                  3.1
13  O=C(O)CC(NC(=O)CCCCc1ccc2c(n1)NCCC2)c1ccccc1Cl (racemic)                 1.92
14  O=C(O)CC(NC(=O)CCCCc1ccc2c(n1)NCCC2)c1cccc(F)c1 (racemic)                 1.92
15  O=C(O)CC(NC(=O)CCCCc1ccc2c(n1)NCCC2)c1ccc2c(c1)OCO2 (racemic)                 1.47
16  O=C(O)CC(NC(=O)CCCCc1ccc2c(n1)NCCC2)c1ccccc1 (racemic)                 1.56
17  Cc1cccc(C(CC(=O)O)NC(=O)CCCCc2ccc3c(n2)NCCC3)c1 (racemic)                 1.95
18  O=C(O)CC(NC(=O)CCCCc1ccc2c(n1)NCCC2)c1ccc(C(F)(F)F)cc1 (racemic)                 2.72
19  O=C(O)CC(NC(=O)CCCCc1ccc2c(n1)NCCC2)c1ccccc1F (racemic)                 1.88
20  O=C(O)C[C@@H](NC(=O)CCCCc1ccc2c(n1)NCCC2)c1cccc(C(F)(F)F)c1                 2.61
21  O=C(O)CC(NC(=O)CCCCc1ccc2c(n1)NCCC2)c1ccc(F)cc1 (racemic)                 1.75
22  O=C(O)CC(NC(=O)CCCCc1ccc2c(n1)NCCC2)c1cccc(Cl)c1Cl (racemic)                 2.73
23  COc1cccc(C(CC(=O)O)NC(=O)CCCCc2ccc3c(n2)NCCC3)c1 (racemic)                 1.66
24  Cc1ccccc1C(CC(=O)O)NC(=O)CCCCc1ccc2c(n1)NCCC2 (racemic)                 1.85
25  O=C(O)CC(NC(=O)CCCCc1ccc2c(n1)NCCC2)c1cccc(OC(F)(F)F)c1 (racemic)                 3.11
26  O=C(O)CC(NC(=O)CCCCc1ccc2c(n1)NCCC2)c1ccc(Cl)cc1 (racemic)                 2.14
27  COc1ccc(C(CC(=O)O)NC(=O)CCCCc2ccc3c(n2)NCCC3)cc1OC (racemic)                 1.37
28  Cc1ccc(C(CC(=O)O)NC(=O)CCCCc2ccc3c(n2)NCCC3)cc1 (racemic)                 1.97
29  O=C(O)CC(NC(=O)CCCCc1ccc2c(n1)NCCC2)c1ccc(OC(F)(F)F)cc1 (racemic)                 2.85
30  O=C(O)CC(NC(=O)CCCCc1ccc2c(n1)NCCC2)c1cccc(C(F)(F)F)c1 (racemic)                 2.73
31  CS(=O)(=O)c1ccc(C(CC(=O)O)NC(=O)CCCCc2ccc3c(n2)NCCC3)cc1 (racemic)                 1.08
